Target: T1, cynomolgus (Macaca fascicularis) ST2L extracellular domain with C-terminal His6 tag (Macaca fascicularis (cynomolgus), UniProt Q01638 19-321 (human entry))
T1 construct: also called cyno ST2L-ECD; cynoST2L-ECD
T1 chain: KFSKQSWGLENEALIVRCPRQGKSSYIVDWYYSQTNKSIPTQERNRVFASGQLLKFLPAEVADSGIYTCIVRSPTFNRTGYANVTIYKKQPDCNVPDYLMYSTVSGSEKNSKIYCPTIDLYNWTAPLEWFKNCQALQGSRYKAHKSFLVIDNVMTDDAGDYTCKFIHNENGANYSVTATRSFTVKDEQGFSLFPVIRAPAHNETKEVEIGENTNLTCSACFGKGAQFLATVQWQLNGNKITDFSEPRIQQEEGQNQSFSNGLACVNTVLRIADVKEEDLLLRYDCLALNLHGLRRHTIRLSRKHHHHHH
Experiment: SPR, mAb captured, ST2L-ECD in solution
attribute.measured: log10(kon) (log10 of the value in M⁻¹ s⁻¹)
Units before log transform: M⁻¹ s⁻¹; reported quantity: kon; transform: log10.

Field: example entries. Status: answers known.
STLM211 (antibody, V domains shown, frameworks VH3-23 / Vk-L6) VH: EVQLLESGGGLVQPGGSLRLSCAASGFTFSGYAMIWVRQAPGKGLEWVSYIEGEGGETYYADSVKGRFTISRDNSKNTLYLQMNSLRAEDTAVYYCARDPWSTEGSFFVLDYWGQGTLVTVSS VL: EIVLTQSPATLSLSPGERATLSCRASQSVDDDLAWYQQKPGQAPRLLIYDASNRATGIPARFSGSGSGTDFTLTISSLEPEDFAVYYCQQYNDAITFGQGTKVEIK; 8.00
STLM229 (antibody, V domains shown, VH STLH201 + VL STLL275) VH: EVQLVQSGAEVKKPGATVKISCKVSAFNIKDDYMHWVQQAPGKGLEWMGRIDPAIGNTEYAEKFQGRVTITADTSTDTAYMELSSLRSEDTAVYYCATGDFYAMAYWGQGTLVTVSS VL: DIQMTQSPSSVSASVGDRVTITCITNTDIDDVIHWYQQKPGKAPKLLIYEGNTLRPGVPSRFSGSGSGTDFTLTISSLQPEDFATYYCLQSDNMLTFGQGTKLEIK; 8.00
STLM226 (antibody, V domains shown, VH STLH201 + VL STLL280) VH: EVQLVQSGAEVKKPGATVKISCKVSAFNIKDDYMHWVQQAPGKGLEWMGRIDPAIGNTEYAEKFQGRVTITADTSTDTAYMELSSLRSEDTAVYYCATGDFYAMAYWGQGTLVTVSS VL: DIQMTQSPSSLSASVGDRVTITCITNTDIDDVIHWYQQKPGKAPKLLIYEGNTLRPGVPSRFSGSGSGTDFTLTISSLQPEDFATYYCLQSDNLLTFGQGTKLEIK; 8.00
STLM230 (antibody, V domains shown, VH STLH201 + VL STLL274) VH: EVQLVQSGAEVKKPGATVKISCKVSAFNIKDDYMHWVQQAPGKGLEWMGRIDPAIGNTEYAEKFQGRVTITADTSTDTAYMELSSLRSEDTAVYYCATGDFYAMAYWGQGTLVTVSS VL: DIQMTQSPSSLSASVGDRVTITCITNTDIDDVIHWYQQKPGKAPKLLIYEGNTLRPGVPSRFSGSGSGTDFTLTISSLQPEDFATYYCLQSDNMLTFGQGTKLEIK; 7.70
STLM103 (antibody, V domains shown, frameworks VH3-23 / Vk-L6) VH: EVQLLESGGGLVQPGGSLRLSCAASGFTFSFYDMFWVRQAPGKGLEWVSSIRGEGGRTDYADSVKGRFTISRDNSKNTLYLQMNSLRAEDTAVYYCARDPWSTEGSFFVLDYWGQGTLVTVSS VL: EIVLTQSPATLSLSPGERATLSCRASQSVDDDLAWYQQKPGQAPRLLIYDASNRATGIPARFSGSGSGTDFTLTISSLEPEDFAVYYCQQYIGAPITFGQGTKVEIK; 6.81

For every item below, please supply its log10(kon).
1. STLM213 (antibody, V domains shown, frameworks VH3-23 / Vk-L6) VH: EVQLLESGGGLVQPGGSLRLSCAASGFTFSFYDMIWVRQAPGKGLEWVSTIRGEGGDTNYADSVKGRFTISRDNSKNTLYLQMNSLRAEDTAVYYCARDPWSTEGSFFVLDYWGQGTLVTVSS VL: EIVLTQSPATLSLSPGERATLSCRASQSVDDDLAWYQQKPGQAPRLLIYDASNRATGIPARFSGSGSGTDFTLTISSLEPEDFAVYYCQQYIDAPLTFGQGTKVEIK
2. STLM107 (antibody, V domains shown, frameworks VH3-23 / Vk-L6) VH: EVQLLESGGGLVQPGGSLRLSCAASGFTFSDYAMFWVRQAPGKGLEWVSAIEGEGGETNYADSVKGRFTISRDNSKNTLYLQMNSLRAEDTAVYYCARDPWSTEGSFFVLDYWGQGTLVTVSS VL: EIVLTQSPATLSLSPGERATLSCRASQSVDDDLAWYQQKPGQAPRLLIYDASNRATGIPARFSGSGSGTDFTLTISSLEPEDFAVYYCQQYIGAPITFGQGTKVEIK
3. STLM216 (antibody, V domains shown, frameworks VH3-23 / Vk-L6) VH: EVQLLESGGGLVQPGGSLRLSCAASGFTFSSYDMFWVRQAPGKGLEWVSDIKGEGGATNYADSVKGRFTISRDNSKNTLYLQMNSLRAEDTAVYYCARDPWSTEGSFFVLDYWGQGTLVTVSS VL: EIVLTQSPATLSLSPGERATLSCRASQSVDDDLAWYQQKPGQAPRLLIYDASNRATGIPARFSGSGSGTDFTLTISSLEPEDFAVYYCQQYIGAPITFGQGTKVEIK
4. STLM231 (antibody, V domains shown, VH STLH201 + VL STLL273; also called S1LM231) VH: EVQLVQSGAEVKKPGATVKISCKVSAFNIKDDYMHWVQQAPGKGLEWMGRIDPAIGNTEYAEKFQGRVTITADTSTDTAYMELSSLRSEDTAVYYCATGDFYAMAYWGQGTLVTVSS VL: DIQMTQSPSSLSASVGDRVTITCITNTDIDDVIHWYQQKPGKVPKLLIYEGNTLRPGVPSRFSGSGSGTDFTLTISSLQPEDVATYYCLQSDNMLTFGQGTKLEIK
5. STLM210 (antibody, V domains shown, frameworks VH3-23 / Vk-L6) VH: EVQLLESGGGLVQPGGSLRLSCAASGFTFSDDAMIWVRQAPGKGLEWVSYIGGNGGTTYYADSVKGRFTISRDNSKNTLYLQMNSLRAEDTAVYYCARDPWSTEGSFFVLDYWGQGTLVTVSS VL: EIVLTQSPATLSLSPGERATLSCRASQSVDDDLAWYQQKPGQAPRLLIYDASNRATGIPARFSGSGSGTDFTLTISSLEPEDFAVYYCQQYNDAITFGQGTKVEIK

Result ::
1: 7.21; 2: 8.00; 3: 7.90; 4: 7.92; 5: 7.76

Sure, the documented log10(kon) for STLM218 (antibody, V domains shown, frameworks VH3-23 / Vk-L6) VH: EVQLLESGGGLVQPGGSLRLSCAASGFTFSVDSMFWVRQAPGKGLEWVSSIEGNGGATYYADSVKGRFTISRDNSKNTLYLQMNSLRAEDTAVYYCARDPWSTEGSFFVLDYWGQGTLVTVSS VL: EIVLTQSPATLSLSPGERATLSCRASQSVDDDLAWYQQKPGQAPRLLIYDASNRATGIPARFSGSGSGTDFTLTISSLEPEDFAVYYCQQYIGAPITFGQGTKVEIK is 7.16
